Sourced from patent US9957278B2

Tested on: genotype 1b (Con-1) HCV replicon
METHOD_NOTES: HCV Replicon Luciferase Assay (genotype 1b)
Assay type: cell-based
CONDITION_NOTES: Hepatitis C virus, 72 h; genotype 1b replicon in Huh-7 cells, Renilla luciferase, 3 days incubation; read-out: EC50 1b (class)
pEC50: −log10 of the molar value.
ASSAY_METRIC: pEC50

INSERT INTO assay_data (line_notation, value) VALUES
  ('CNC(=O)c1c(-c2ccc(F)cc2)oc2nc(NCC(F)(F)C(F)(F)F)c(-c3cccc(C(=O)NCC(C)(C)C)c3)cc12', '> 7.00'),
  ('CNC(=O)c1c(-c2ccc(F)cc2)oc2nc(NCC(F)(F)F)c(-c3ccc(OC)c(C(=O)NCC(F)(F)C(F)(F)C(F)(F)F)c3)cc12', '> 7.00'),
  ('[2H]C([2H])([2H])C(NC(=O)c1cccc(-c2cc3c(C(=O)NC)c(-c4ccc(F)cc4)oc3nc2NCC(F)(F)C(F)(F)F)c1)(C([2H])([2H])[2H])C([2H])([2H])[2H]', '6.00 to 7.00');

* * *

Test system: genotype 1b (Con-1) HCV replicon
METHOD_NOTES: HCV Replicon Luciferase Assay (genotype 1b)
Format: cell-based
CONDITION_NOTES: Hepatitis C virus, 72 h; genotype 1b replicon in Huh-7 cells, Renilla luciferase, 3 days incubation; read-out: EC50 1b (class)
pEC50: −log10 of the molar value.
The following compounds are listed with their measured pEC50 values.
ASSAY_METRIC: pEC50

INSERT INTO assay_data (compound, assay_metric, value) VALUES
  ('CNC(=O)c1c(-c2ccc(F)cc2)oc2nc(NCC(F)(F)F)c(-c3cccc(C(=O)NC(C)(C)C(F)(F)F)c3)cc12', 'pEC50', '> 7.00'),
  ('CNC(=O)c1c(-c2ccc(F)cc2)oc2nc(CCC(F)(F)F)c(-c3cccc(C(=O)NC(C)(C)CCO)c3)cc12', 'pEC50', '> 7.00'),
  ('CNC(=O)c1c(-c2ccc(F)cc2)oc2nc(NCC(F)(F)C(F)(F)F)c(-c3ccc(OC)c(C(=O)NCC(C)(C)C)c3)cc12', 'pEC50', '> 7.00'),
  ('CNC(=O)c1c(-c2ccc(F)cc2)oc2nc(NCC(F)(F)F)c(-c3cccc(C(=O)NC(C)(C)C(=O)NC)c3)cc12', 'pEC50', '> 7.00'),
  ('CNC(=O)c1c(-c2ccc(F)cc2)oc2nc(NCC(F)(F)F)c(-c3cccc(C(=O)NC4(C(=O)OC)CC4)c3)cc12', 'pEC50', '> 7.00'),
  ('CCC(NC(=O)c1cccc(-c2cc3c(C(=O)NC)c(-c4ccc(F)cc4)oc3nc2CCC(F)(F)F)c1)C(F)(F)F (stereo not shown)', 'pEC50', '> 7.00'),
  ('CNC(=O)c1c(-c2ccc(F)cc2)oc2nc(CCC(F)(F)F)c(-c3cccc(C(=O)NC(C)C(F)(F)F)c3)cc12 (stereo not shown)', 'pEC50', '> 7.00'),
  ('CNC(=O)c1c(-c2ccc(F)cc2)oc2nc(CCC(F)(F)F)c(-c3cccc(C(=O)NC(CF)(CF)CF)c3)cc12', 'pEC50', '> 7.00'),
  ('CNC(=O)c1c(-c2ccc(F)cc2)oc2nc(CCC(F)(F)F)c(-c3cccc(C(=O)NCC(C)(F)F)c3)cc12', 'pEC50', '> 7.00'),
  ('CC[C@H](NC(=O)c1cccc(-c2cc3c(C(=O)NC)c(-c4ccc(F)cc4)oc3nc2CCC(F)(F)F)c1)C1CC1', 'pEC50', '> 7.00'),
  ('CNC(=O)c1c(-c2ccc(F)cc2)oc2nc(CCC(F)(F)F)c(-c3cccc(C(=O)NC(C)C4CC4)c3)cc12 (stereo not shown)', 'pEC50', '> 7.00'),
  ('CNC(=O)c1c(-c2ccc(F)cc2)oc2nc(NCC(F)(F)F)c(-c3cccc(C(=O)N[C@H](CO)c4ccccc4)c3)cc12', 'pEC50', '> 7.00'),
  ('CNC(=O)c1c(-c2ccc(F)cc2)oc2nc(CCC(F)(F)F)c(-c3cccc(C(=O)NC(c4ccccc4)C4CC4)c3)cc12 (stereo not shown)', 'pEC50', '> 7.00');
